All figures here come from patent US20100010002A1.

The molecules listed here are annotated with their GI50.
Molecular target: Ba/F3 Bcr-Abl/T315I (Homo sapiens, UniProt P00519, T315I, cells depend on it)
Conditions: mouse, ba/f3 bcr-abl/t315i, 72 h
Method: The cell lines described in Table 3 were used to test the antiproliferative activity of test compounds. Cell Counting Kit-8 (CCK-8) allows very convenient assay by utilizing Dojindo's highly water-soluble tetrazolium salt. […] Plates were further incubated at 37° C., 5% CO2 incubator for 72 h. […] Measured the absorbance at 450 nm using a microplate reader. A. The percent inhibition and IC50 were calculated in comparison with control values.
Quick reminder: number only, in nM, skip the unit.

Here are 3 molecules together with their reported answers.
COC(=O)C=Cc1ccc(O)c(O)c1 = 6300
CC(C)OC(=O)C=Cc1ccc(O)c(O)c1 = 2000
CCCOC(=O)C=Cc1ccc(O)c(O)c1 = 600

Ask | I have this molecule here, CCOC(=O)C=Cc1ccc(O)c(O)c1 , and I need its recorded GI50.
Reply | 1100
